All figures here come from patent US20220177508A1.

- Test system: S. aureus MP-12
- experiment_notes: Broth dilution MIC determination (CLSI), S. aureus MP-12
- Format: cell-based
- assay_context: Staphylococcus aureus, MP12; strain MP-12, broth dilution
parameter_measured: MIC

1. CO[C@]1(C)C[C@@H](C)CN(C)[C@H]([C@@H]2CCCNC2)COC(=O)C(C)(C)C(=O)[C@H](C)[C@H]1O[C@@H]1O[C@H](C)C[C@H](N(C)C)[C@H]1O [Compound 77]    > 32 µg/mL
2. CO[C@]1(C)C[C@@H](C)CN(C)[C@H](C2CC3CCC(C2)N3CC(C)C)COC(=O)C(C)(C)C(=O)[C@H](C)[C@H]1O[C@@H]1O[C@H](C)C[C@H](N(C)C)[C@H]1O (stereo partly shown) [Compound 87]    < 4 µg/mL
3. CCN1C[C@H](C)C[C@@](C)(OC)[C@H](O[C@@H]2O[C@H](C)C[C@H](N(C)C)[C@H]2O)[C@@H](C)C(=O)C(C)(C)C(=O)OC[C@H]1C1CN(CC(C)C)C1 [Compound 70]    4 to 32 µg/mL
4. CO[C@]1(C)C[C@@H](C)CN(C)[C@H]([C@@H]2CCCN2C)COC(=O)C(C)(C)C(=O)[C@H](C)[C@H]1O[C@@H]1O[C@H](C)C[C@H](N(C)C)[C@H]1O [Compound 106]    > 32 µg/mL
5. CO[C@]1(C)C[C@@H](C)CN(C)[C@H](C2CN(Cc3cccnc3)C2)COC(=O)C(C)(C)C(=O)[C@H](C)[C@H]1O[C@@H]1O[C@H](C)C[C@H](N(C)C)[C@H]1O [Compound 119]    4 to 32 µg/mL
6. CO[C@]1(C)C[C@@H](C)CN(C)[C@H](C2CCN(C(=O)CNCC(C)C)CC2)COC(=O)C(C)C(=O)[C@H](C)[C@H]1O[C@@H]1O[C@H](C)C[C@H](N(C)C)[C@H]1O (stereo partly shown) [Compound 107]    > 32 µg/mL
7. CO[C@]1(C)C[C@@H](C)CN(C)[C@H](C2CCNCC2)COC(=O)C(C)(C)C(=O)[C@H](C)[C@H]1O[C@@H]1O[C@H](C)C[C@H](N(C)C)[C@H]1O [Compound 80]    4 to 32 µg/mL
8. COCC(C)N1CCC([C@H]2COC(=O)C(C)(C)C(=O)[C@H](C)[C@@H](O[C@@H]3O[C@H](C)C[C@H](N(C)C)[C@H]3O)[C@](C)(OC)C[C@@H](C)CN2C)CC1 (stereo partly shown) [Compound 124]    4 to 32 µg/mL
9. CO[C@]1(C)C[C@@H](C)CN(C)[C@H]([C@H]2CCN(C(C)C)C2)COC(=O)C(C)(C)C(=O)[C@H](C)[C@H]1O[C@@H]1O[C@H](C)C[C@H](N(C)C)[C@H]1O [Compound 11]    4 to 32 µg/mL
10. CO[C@]1(C)C[C@@H](C)CN(C)[C@@H]([C@H]2CNC(=O)C2)COC(=O)C(C)(C)C(=O)[C@H](C)[C@H]1O[C@@H]1O[C@H](C)C[C@H](N(C)C)[C@H]1O [Compound 8]    > 32 µg/mL

====

- System: K. pneumoniae MP-546
- experiment_notes: Broth dilution MIC determination (CLSI), K. pneumoniae MP-546
- Format: cell-based
- assay_context: Klebsiella pneumoniae, MP546; strain MP-546, broth dilution
Reported MIC is given for each of the following compounds.
parameter_measured: MIC

1. CO[C@]1(C)C[C@@H](C)CN(C)[C@H]([C@H]2CCN(C)C2)COC(=O)C(C)(C)C(=O)[C@H](C)[C@H]1O[C@@H]1O[C@H](C)C[C@H](N(C)C)[C@H]1O    < 4 µg/mL
2. CO[C@]1(C)C[C@@H](C)CN(C)[C@H](C2CN(C(=O)CN(C)C)C2)[C@@H](C)OC(=O)C(C)(C)C(=O)[C@H](C)[C@H]1O[C@@H]1O[C@H](C)C[C@H](N(C)C)[C@H]1O    4 to 32 µg/mL
3. CO[C@]1(C)C[C@@H](C)CN(C)[C@H](C2CN(C(=O)CCCN(C)C)C2)COC(=O)C(C)(C)C(=O)[C@H](C)[C@H]1O[C@@H]1O[C@H](C)C[C@H](N(C)C)[C@H]1O    > 32 µg/mL
4. CO[C@]1(C)C[C@@H](C)CN(C)[C@H](C2CN(C(=O)[C@H]3CCN(CC4CC4)C3)C2)COC(=O)C(C)(C)C(=O)[C@H](C)[C@H]1O[C@@H]1O[C@H](C)C[C@H](N(C)C)[C@H]1O    4 to 32 µg/mL
5. COCC(C)N1CC([C@@H]2COC(=O)C(C)(C)C(=O)[C@H](C)[C@@H](O[C@@H]3O[C@H](C)C[C@H](N(C)C)[C@H]3O)[C@](C)(OC)C[C@@H](C)CN2C)C1 (stereo partly shown)    4 to 32 µg/mL
6. CO[C@]1(C)C[C@@H](C)CN(C)[C@H](C2CN(C(=O)CCN(C)C)C2)COC(=O)C(C)(C)C(=O)[C@H](C)[C@H]1O[C@@H]1O[C@H](C)C[C@H](N(C)C)[C@H]1O    4 to 32 µg/mL
7. CO[C@]1(C)C[C@@H](C)CN(C)[C@H](C2CN(Cc3cnn(C)c3)C2)COC(=O)C(C)(C)C(=O)[C@H](C)[C@H]1O[C@@H]1O[C@H](C)C[C@H](N(C)C)[C@H]1O    < 4 µg/mL

====

Reported MIC is given for each of the following compounds.
- System: K. pneumoniae MP-546
- experiment_notes: Broth dilution MIC determination (CLSI), K. pneumoniae MP-546
- Type: cell-based
- assay_context: Klebsiella pneumoniae, MP546; strain MP-546, broth dilution
parameter_measured: MIC

1. CO[C@]1(C)C[C@@H](C)CN(C)[C@H](C2CN(CC3CCC3)C2)COC(=O)C(C)(C)C(=O)[C@H](C)[C@H]1O[C@@H]1O[C@H](C)C[C@H](N(C)C)[C@H]1O [Compound 17]    < 4 µg/mL
2. CO[C@]1(C)C[C@@H](C)CN(C)[C@H](C2CN(C(=O)[C@@H]3CCN(C)C3)C2)COC(=O)C(C)(C)C(=O)[C@H](C)[C@H]1O[C@@H]1O[C@H](C)C[C@H](N(C)C)[C@H]1O [Compound 111]    4 to 32 µg/mL
3. CO[C@]1(C)C[C@@H](C)CN(C)[C@@H](C2CN(C(=O)[C@@H](C)N(C)C)C2)COC(=O)C(C)(C)C(=O)[C@H](C)[C@H]1O[C@@H]1O[C@H](C)C[C@H](N(C)C)[C@H]1O [Compound 52]    4 to 32 µg/mL
4. CO[C@]1(C)C[C@@H](C)CN(C)[C@H](C2CN(CC(=O)NC(C)C)C2)COC(=O)C(C)(C)C(=O)[C@H](C)[C@H]1O[C@@H]1O[C@H](C)C[C@H](N(C)C)[C@H]1O [Compound 36]    4 to 32 µg/mL
5. CO[C@]1(C)C[C@@H](C)CN(C)[C@H](C2CC3CCC(C2)N3C)COC(=O)C(C)(C)C(=O)[C@H](C)[C@H]1O[C@@H]1O[C@H](C)C[C@H](N(C)C)[C@H]1O (stereo partly drawn) [Compound 129]    4 to 32 µg/mL
6. CCCN1C[C@H](C)C[C@@](C)(OC)[C@H](O[C@@H]2O[C@H](C)C[C@H](N(C)C)[C@H]2O)[C@@H](C)C(=O)C(C)(C)C(=O)OC[C@H]1[C@H]1C[C@H](N(C)CC)C1 [Compound 94]    < 4 µg/mL

====

- Tested on: K. pneumoniae MP-648
- experiment_notes: Broth dilution MIC determination (CLSI), K. pneumoniae MP-648
- Type: cell-based
- assay_context: Klebsiella pneumoniae, MP648; strain MP-648, broth dilution
parameter_measured: MIC

1) CCCN1C[C@H](C)C[C@@](C)(OC)[C@H](O[C@@H]2O[C@H](C)C[C@H](N(C)C)[C@H]2O)[C@@H](C)C(=O)C(C)(C)C(=O)OC[C@H]1[C@H]1C[C@H](N(C)CC)C1    4 to 32 µg/mL
2) CO[C@]1(C)C[C@@H](C)CN(C)[C@H](C2CN(C(=O)[C@H]3CCNC3)C2)COC(=O)C(C)(C)C(=O)[C@H](C)[C@H]1O[C@@H]1O[C@H](C)C[C@H](N(C)C)[C@H]1O    > 32 µg/mL
3) CO[C@]1(C)C[C@@H](C)CN(C)[C@@H](C2CCN(CC3CC3)CC2)COC(=O)C(C)(C)C(=O)[C@H](C)[C@H]1O[C@@H]1O[C@H](C)C[C@H](N(C)C)[C@H]1O    < 4 µg/mL

====

- Test system: K. pneumoniae MP-546
- experiment_notes: Broth dilution MIC determination (CLSI), K. pneumoniae MP-546
- Type: cell-based
- assay_context: Klebsiella pneumoniae, MP546; strain MP-546, broth dilution
Reported MIC is given for each of the following compounds.
parameter_measured: MIC

1) CO[C@]1(C)C[C@@H](C)CN(C)[C@@H]([C@H]2CCNC2)COC(=O)C(C)(C)C(=O)[C@H](C)[C@H]1O[C@@H]1O[C@H](C)C[C@H](N(C)C)[C@H]1O    < 4 µg/mL
2) CO[C@]1(C)C[C@@H](C)CN(C)[C@H](C2CN(Cc3ccccc3)C2)COC(=O)C(C)(C)C(=O)[C@H](C)[C@H]1O[C@@H]1O[C@H](C)C[C@H](N(C)C)[C@H]1O    < 4 µg/mL
3) CCN(C)CCCC(=O)N1CC([C@@H]2COC(=O)C(C)(C)C(=O)[C@H](C)[C@@H](O[C@@H]3O[C@H](C)C[C@H](N(C)C)[C@H]3O)[C@](C)(OC)C[C@@H](C)CN2C)C1    > 32 µg/mL
4) CO[C@]1(C)C[C@@H](C)CN(C)[C@H](C2CCN(Cc3nccn3C)CC2)COC(=O)C(C)(C)C(=O)[C@H](C)[C@H]1O[C@@H]1O[C@H](C)C[C@H](N(C)C)[C@H]1O    4 to 32 µg/mL
5) CO[C@]1(C)C[C@@H](C)CN(C)[C@@H]([C@@H]2CCCN(C)C2)COC(=O)C(C)(C)C(=O)[C@H](C)[C@H]1O[C@@H]1O[C@H](C)C[C@H](N(C)C)[C@H]1O    4 to 32 µg/mL
6) CCN1C[C@H](C)C[C@@](C)(OC)[C@H](O[C@@H]2O[C@H](C)C[C@H](N(C)C)[C@H]2O)[C@@H](C)C(=O)C(C)(C)C(=O)OC[C@H]1C1CN(C(=O)CN(C)C)C1    4 to 32 µg/mL
7) CO[C@]1(C)C[C@@H](C)CN(C)[C@H](C2CN(Cc3cncnc3)C2)COC(=O)C(C)(C)C(=O)[C@H](C)[C@H]1O[C@@H]1O[C@H](C)C[C@H](N(C)C)[C@H]1O    4 to 32 µg/mL
8) CO[C@]1(C)C[C@@H](C)CN(C(=O)OCc2ccccc2)[C@H](C2CCN(C(C)C)CC2)COC(=O)C(C)(C)C(=O)[C@H](C)[C@H]1O[C@@H]1O[C@H](C)C[C@H](N(C)C)[C@H]1O    > 32 µg/mL
9) CO[C@]1(C)C[C@@H](C)CN(C)[C@H](C2CCNCC2)COC(=O)C(C)(C)C(=O)[C@H](C)[C@H]1O[C@@H]1O[C@H](C)C[C@H](N(C)C)[C@H]1O    4 to 32 µg/mL
10) CO[C@]1(C)C[C@@H](C)CN(C)[C@H](C2CN(CC3CCCC3)C2)COC(=O)C(C)(C)C(=O)[C@H](C)[C@H]1O[C@@H]1O[C@H](C)C[C@H](N(C)C)[C@H]1O    < 4 µg/mL
